experiment notes: NCI Yeast Anticancer Drug Screen. Data for the bub3 strain (AID 167)
run parameters: S. cerevisiae bub3 mutant strain, at 50.0 µM, hits give high values
Description: Growth inhibition of yeast strains with defined genetic alterations is measured as a screen for potential anti-cancer activity. Selected strains with alterations in DNA damage repair or cell cycle control were exposed to compounds and growth inhibition was measured relative to vehicle treated controls. The strain used in this assay is bub3
About 79,000 compounds went through this panel and 15% of them were active in at least one assay; those are over-represented in the sample as a whole.
metric name: growth inhibition (%)
Note: unit % is implicit; provide only the numeric part.

Request the reported growth inhibition associated with CC(C)NC(=O)O/N=C1\CCC2[C@@H]3CC=C4C[C@@H](OC(=O)NC(C)C)CC[C@]4(C)C3CC[C@]12C (stereo partly specified)
91.2

# lookup: growth inhibition of `Cc1c(C)c(C)c(C(=O)c2ccccc2C(=O)NCCSC(C)(C)C)c(C)c1C`
82.4

Name the recorded growth inhibition for CCC(c1ccc(O)cc1)C(O)(CC)c1ccc(O)cc1 (stereo unspecified) .
58.6

Need growth inhibition, item COC(=O)C1(Cc2ccc(C)cc2)Cc2c(C)cccc2C1=O (stereo unspecified)
75.2

What value of growth inhibition has been recorded for this entry: `CCCCCCCCCCCCNCCNCCN`
89

Consider the compound shown here: COc1cccc(C2c3cc4c(cc3OC(NNc3ccccc3)C2C)OCO4)c1OC (stereo unspecified) What is its recorded growth inhibition?
34.2

Could you share which growth inhibition value was measured for `S=C(N/N=C1/CCCC/C1=N/NC(=S)N1CCOCC1)N1CCOCC1` ?
91

Reported growth inhibition, compound `OCCc1ccccc1C(c1ccccc1)c1ccccc1` : ____
99.2

Which value of growth inhibition has been reported for `COC(=O)[C@@H](O)[C@]1(C(=O)OC)C2O[C@@H](OC)[C@@H]1CCCCCC[C@H]2O` in the records?
8.85

Entry C=CCOCC(C)OC(=O)C(C)C (stereo unspecified) has what growth inhibition?
11.8

growth inhibition lookup needed for `COc1ccc(CSC(=S)Nc2cc(C)c(C)cc2[N+](=O)[O-])cc1` , thanks.
97
